The origin of these recorded values is ChEMBL document CHEMBL1149171.

# assay comment: Oral bioavailability in rat
# Format: ADME, organism-based
# particulars: in vivo
reported property: bioavailability (%)

1. COC[C@H](C)Nc1nccc(-c2c(-c3ccc(F)cc3)c(=O)n3n2CCC3)n1	63

[I] O=c1c(-c2ccc(F)cc2)c(-c2ccnc(NCc3ccccc3)n2)n2n1CCC2
[II] C[C@H](Nc1nccc(-c2c(-c3ccc(F)cc3)c(=O)n3n2CCC3)n1)c1ccccc1
Q) I'm curious whether I or II has the smaller bioavailability number. Which is it? Answer format: the label of the selected item.
A) I
(I: 18%, II: 29%)

[a] CC[C@H](C)Nc1nccc(-c2c(-c3ccc(F)cc3)c(=O)n3n2CCC3)n1
[b] C[C@H](Nc1nccc(-c2c(-c3ccc(F)cc3)c(=O)n3n2CCC3)n1)C(C)(C)O
Q) Compare the recorded bioavailability of a and b ; state which is larger. To answer, give the label that identifies your chosen option.
A) b
(b: 25%, a: 10%)

###

# assay comment: Solubility was determined
# Type: ADME, Rattus norvegicus
reported property: solubility (mg/mL)

1. O=c1c(-c2ccc(F)cc2)c(-c2ccnc(NCc3ccccc3)n2)n2n1CCC2	0.1
2. C[C@H](Nc1nccc(-c2c(-c3ccc(F)cc3)c(=O)n3n2CCC3)n1)C(C)(C)O	1.85
3. COC[C@H](C)Nc1nccc(-c2c(-c3ccc(F)cc3)c(=O)n3n2CCC3)n1	0.84

[1] CC[C@H](C)Nc1nccc(-c2c(-c3ccc(F)cc3)c(=O)n3n2CCC3)n1
[2] C[C@H](Nc1nccc(-c2c(-c3ccc(F)cc3)c(=O)n3n2CCC3)n1)c1ccccc1
Q) Between 1 and 2 , whose recorded solubility is greater? Label of pick, please.
A) 1
(1: 0.46 mg/mL, 2: 0.2 mg/mL)

###

# assay comment: Metabolism was measured as percent loss at 4 hr in rat hepatocytes
# Format: ADME, Hepatocyte
# particulars: read-out: Metabolism
reported property: metabolised at 4 h (%)

1) CC[C@H](C)Nc1nccc(-c2c(-c3ccc(F)cc3)c(=O)n3n2CCC3)n1	60
2) O=c1c(-c2ccc(F)cc2)c(-c2ccnc(NCc3ccccc3)n2)n2n1CCC2	46

[1] C[C@H](Nc1nccc(-c2c(-c3ccc(F)cc3)c(=O)n3n2CCC3)n1)c1ccccc1
[2] C[C@H](Nc1nccc(-c2c(-c3ccc(F)cc3)c(=O)n3n2CCC3)n1)C(C)(C)O
Q) From the recorded data, which exceeds the other in metabolised at 4 h: 1 or 2 ? Identify your pick by its label.
A) 1
(1: 50%, 2: 29%)
